Test system: HOP-92 NSCLC
Assay: NCI-60 one-dose screen, 48 h
Settings: 10 µM
Description: Growth inhibition of the HOP-92 human Non-Small Cell Lung tumor cell line is measured as a screen for anti-cancer activity. Cells are grown in 96 well plates and exposed to the test compound for 48 hours. Compounds are tested at a single concentration, which is 10^-5 M for most compounds. The reported endpoint is percent growth (GI% or GIPRCNT), where numbers from 0 - 100% represent growth inhibition, and numbers from -100% - 0 represent cell death. […]
This is part of a sample that, as a whole, favours compounds with a hit. Of some 83,000 tested, about 20% had one in any assay. Active and inactive are the calls of the source. The calls were made as follows: active = growth percent below 10; inactive = the rest.
Response enum: active, inactive

What call does the record list for Cc1ccc(-c2cc3nc(C(Cl)Cl)nc(-c4cccs4)n3n2)cc1 ? inactive

Can you look up the reported call for O=C(Nc1ccc(N=Cc2c(O)[nH]c3ccccc23)cc1)Nc1nccs1 for me? inactive

Could you check what this test reported for CC(C)C[C@@H]1N[C@@]2(C(=O)Nc3ccccc32)[C@@H](c2ccc(F)cc2)[C@@H]1C(=O)c1ccc(O)cc1 ? inactive

Identify the outcome logged in this assay for the compound shown: COc1ccc(/C(N)=N/C(N)=N/c2nc3ccccc3s2)cc1 inactive

Dear all, I need the recorded test outcome for COc1cc(/C=C2\C(=O)Nc3ccccc32)ccc1OCc1ccc(Cl)cc1 , thank you. inactive

Per the assay record, what outcome was assigned to CC(=O)c1cc(C(=O)c2ccc(Br)cc2)n2cc(C)cc(C)c12 ? inactive

----------
Test system: MOLT-4 leukemia
Test: NCI-60 one-dose screen, 48 h (100 = growth as untreated, 0 = no growth, -100 = all killed)
Details: 10 µM unless noted
Compounds without any hit were thinned out: in the full panel of roughly 83,000, 20% have a hit.
experimental-endpoint: growth (%)
Express the result in % but write the number alone.

# annotated cases, reported growth shown
{"structure-smiles-string": "C[C@@H](Nc1c(C#N)cnc2ccc(-c3cnc(Cl)c(NS(C)(=O)=O)c3)cc12)c1ccccc1", "endpoint-value": -35.6}
{"structure-smiles-string": "O=S(=O)(NCCCNc1nccc(-n2cnc3ccccc32)n1)c1ccc(C(F)(F)F)cc1", "endpoint-value": 67}
{"structure-smiles-string": "O=S(=O)(Nc1cccc2ccccc12)c1ccc(-c2cnc(C3CC3)o2)cc1", "endpoint-value": 21.8}
{"structure-smiles-string": "CC(=O)O[C@@H]1C(=O)N(c2cnccn2)[C@H]1c1ccccc1[N+](=O)[O-]", "endpoint-value": 16.4}
{"structure-smiles-string": "CNC(=O)c1cc(Oc2ccc3nc(NC(=O)c4ccc(N5CCOCC5)c(C(F)(F)F)c4)sc3c2)ccn1", "endpoint-value": 75.8}
{"structure-smiles-string": "NS(=O)(=O)c1ccc(Nc2nc(SCC(=O)c3ccc(Cl)cc3)nc3c2CCCC3)cc1", "endpoint-value": 38.4}
{"structure-smiles-string": "CC1(C)[C@@H](O)CC[C@]2(C)[C@H]3CC[C@@H]4[C@H]5[C@H](C(=O)/C=C\\c6ccc([N+](=O)[O-])cc6)CC[C@]5(O)CC[C@@]4(C)[C@]3(C)CC[C@@H]12", "endpoint-value": 22.9}

Field: next compound
Data request, read-out growth, for CCOC(=O)c1c(N)c(C#N)cn1-c1cc(OC)c(OC)c(OC)c1 102
